test: in vitro; conditions: human, serum
Positions of bridges follow the written chain, without caps; N, C: chain ends. Residues, ends and D or L forms follow the SMILES beside them.
measured endpoint: remaining at 24 h (%)

N=C(N)NCCC[C@@H]1NC(=O)[C@@H](NC(=O)CN)CSSC[C@@H](C(N)=O)NC(=O)[C@H](Cc2c[nH]c3ccccc23)NC(=O)[C@H](CCCNC(=N)N)NC(=O)[C@H](CCCNC(=N)N)NC(=O)[C@H](Cc2c[nH]c3ccccc23)NC(=O)[C@H](Cc2c[nH]c3ccccc23)NC1=O [[ΔQP, S8R]SS1] (H-GCRWWRRWC-NH2; disulfide 2-9): 14

Origin of values: paper PMC13366377
